Hello, the source for this data is patent US20050163796A1, in case you need it.

target: HLA-B*0702 on HLA-B*0702 transfected TAP- T2 cells (human); conditions: scale: ratio of concentrations, tested peptide / R10V reference
Value Type: RA (relative affinity)

>>> reported("SPVLRLRPPV (modifications not checked) [S10PV]")
0.85
>>> reported("QPPLYFVHQM (modifications not checked) [Q10QM]")
49
>>> reported("MPVYPQTPT (modifications not checked) [M9PT]")
0.94
>>> reported("AAISPVLRL (modifications not checked) [A9RL]")
15
>>> reported("QPRSDTHVF (modifications not checked) [Q9VF]")
1.56
>>> reported("GPHMPVYPQT (modifications not checked) [G10QT]")
22
